- System: Escherichia coli TOP10
- protocolText: shrunken log2 fold change of peptide-encoding DNA abundance (4.5 h post-induction vs induction); higher = less antimicrobial activity (less host growth inhibition)
- conditions: time post-induction: 4.5 h; library: site-saturation at positions 5, 18, 19, 20
Each item that follows carries a reported shrunken log2 fold change.
Lab note: record just the number, no unit beside it.

# count of solved cases: 10
# residues, recordedMetric, readoutValue
measured = [
    ("RRIRDRPPRLPRPRPRPYKCPRP", "shrunken log2 fold change", -0.00925),
    ("RRIRMRPPRLPRPRPRPKAKPRP", "shrunken log2 fold change", 0.0227),
    ("RRIRPRPPRLPRPRPRPVELPRP", "shrunken log2 fold change", -0.0271),
    ("RRIRERPPRLPRPRPRPFSMPRP", "shrunken log2 fold change", -0.366),
    ("RRIRDRPPRLPRPRPRPSIVPRP", "shrunken log2 fold change", -0.0831),
    ("RRIRKRPPRLPRPRPRPCKNPRP", "shrunken log2 fold change", -0.0355),
    ("RRIRKRPPRLPRPRPRPVLEPRP", "shrunken log2 fold change", 0.475),
    ("RRIRERPPRLPRPRPRPNTCPRP", "shrunken log2 fold change", -1.13),
    ("RRIRRRPPRLPRPRPRPMQSPRP", "shrunken log2 fold change", 0.0774),
    ("RRIRDRPPRLPRPRPRPGGWPRP", "shrunken log2 fold change", 0.975),
]

Lookup: Tell me shrunken log2 fold change reported for RRIRTRPPRLPRPRPRPKQGPRP
Found: 0.0588

Lookup: Tell me shrunken log2 fold change reported for RRIRQRPPRLPRPRPRPYSGPRP
Found: -0.126

Lookup: Tell me shrunken log2 fold change reported for RRIRKRPPRLPRPRPRPGMAPRP
Found: 0.315

Lookup: Tell me shrunken log2 fold change reported for RRIRCRPPRLPRPRPRPLNWPRP
Found: 0.0486

Lookup: Tell me shrunken log2 fold change reported for RRIRERPPRLPRPRPRPKYTPRP
Found: -0.297

Lookup: Tell me shrunken log2 fold change reported for RRIRWRPPRLPRPRPRPFLTPRP
Found: 2.56

###

- Test system: Escherichia coli TOP10
- protocolText: shrunken log2 fold change of peptide-encoding DNA abundance (4.5 h post-induction vs induction); higher = less antimicrobial activity (less host growth inhibition)
- conditions: time post-induction: 4.5 h; library: site-saturation at positions 5, 18, 19, 20
recordedMetric: shrunken log2 fold change
Lab note: record just the number, no unit beside it.

# count of solved cases: 2
# residues, subjectOfTest, shrunken log2 fold change
records = [
    ("RRIRERPPRLPRPRPRPDGMPRP", "Escherichia coli TOP10", -0.0237),
    ("RRIRYRPPRLPRPRPRPPSVPRP", "Escherichia coli TOP10", -0.209),
]

Now look at this one.
Lookup: Tell me shrunken log2 fold change reported for RRIRYRPPRLPRPRPRPGCQPRP
Found: 0.0142

###

- System: Escherichia coli TOP10
- protocolText: shrunken log2 fold change of peptide-encoding DNA abundance (4.5 h post-induction vs induction); higher = less antimicrobial activity (less host growth inhibition)
- conditions: time post-induction: 4.5 h; library: site-saturation at positions 5, 18, 19, 20
Each item that follows carries a reported shrunken log2 fold change.
Lab note: record just the number, no unit beside it.

# count of solved cases: 4
# residues, subjectOfTest, readoutValue
measured = [
    ("RRIRARPPRLPRPRPRPDKNPRP", "Escherichia coli TOP10", -0.00427),
    ("RRIRFRPPRLPRPRPRPPWNPRP", "Escherichia coli TOP10", -0.128),
    ("RRIRQRPPRLPRPRPRPGHLPRP", "Escherichia coli TOP10", -0.0699),
    ("RRIRRRPPRLPRPRPRPQYEPRP", "Escherichia coli TOP10", -0.00402),
]

Lookup: Tell me shrunken log2 fold change reported for RRIRMRPPRLPRPRPRPQFVPRP
Found: -0.0894

Lookup: Tell me shrunken log2 fold change reported for RRIRARPPRLPRPRPRPPSLPRP
Found: 0.513

Lookup: Tell me shrunken log2 fold change reported for RRIRPRPPRLPRPRPRPQPVPRP
Found: 0.212

###

- Tested on: Escherichia coli TOP10
- protocolText: shrunken log2 fold change of peptide-encoding DNA abundance (4.5 h post-induction vs induction); higher = less antimicrobial activity (less host growth inhibition)
- conditions: time post-induction: 4.5 h; library: site-saturation at positions 5, 18, 19, 20
Where shrunken log2 fold change equals or exceeds 0.01, the correct label is True; where it does not, the label is False.

Here's what some known entries look like.
# residues, classAssignment
data = [
    ("RRIRWRPPRLPRPRPRPTGHPRP", "True"),
    ("RRIRNRPPRLPRPRPRPQSLPRP", "False"),
    ("RRIRVRPPRLPRPRPRPEEWPRP", "True"),
    ("RRIRWRPPRLPRPRPRPQCAPRP", "True"),
    ("RRIRIRPPRLPRPRPRPPIGPRP", "False"),
    ("RRIRIRPPRLPRPRPRPMSNPRP", "True"),
]

Lookup: Check the entry RRIRVRPPRLPRPRPRPAPWPRP : does shrunken log2 fold change equal or exceed 0.01?
Found: True

Lookup: Check the entry RRIRTRPPRLPRPRPRPGGYPRP : does shrunken log2 fold change equal or exceed 0.01?
Found: False

Lookup: Check the entry RRIRYRPPRLPRPRPRPCHMPRP : does shrunken log2 fold change equal or exceed 0.01?
Found: False

Lookup: Check the entry RRIRWRPPRLPRPRPRPDYDPRP : does shrunken log2 fold change equal or exceed 0.01?
Found: False

###

- Tested on: Escherichia coli TOP10
- protocolText: shrunken log2 fold change of peptide-encoding DNA abundance (4.5 h post-induction vs induction); higher = less antimicrobial activity (less host growth inhibition)
- conditions: time post-induction: 4.5 h; library: site-saturation at positions 5, 18, 19, 20
Each item that follows carries a reported shrunken log2 fold change.

# count of solved cases: 3
# residues, readoutValue
rows = [
    ("RRIRIRPPRLPRPRPRPPIQPRP", -0.468),
    ("RRIRVRPPRLPRPRPRPCMAPRP", -0.276),
    ("RRIRDRPPRLPRPRPRPMAPPRP", 0.982),
]

Now look at this one.
Lookup: Tell me shrunken log2 fold change reported for RRIRRRPPRLPRPRPRPGTQPRP
Found: 0.0536

###

- Test system: Escherichia coli TOP10
- protocolText: shrunken log2 fold change of peptide-encoding DNA abundance (4.5 h post-induction vs induction); higher = less antimicrobial activity (less host growth inhibition)
- conditions: time post-induction: 4.5 h; library: site-saturation at positions 5, 18, 19, 20
recordedMetric: shrunken log2 fold change
Lab note: record just the number, no unit beside it.

# count of solved cases: 3
# residues, shrunken log2 fold change
rows = [
    ("RRIRTRPPRLPRPRPRPLHCPRP", -0.148),
    ("RRIRSRPPRLPRPRPRPHQQPRP", -0.0386),
    ("RRIRPRPPRLPRPRPRPWEKPRP", -0.106),
]

Lookup: Tell me shrunken log2 fold change reported for RRIRTRPPRLPRPRPRPEISPRP
Found: 0.00497

Lookup: Tell me shrunken log2 fold change reported for RRIRKRPPRLPRPRPRPIFGPRP
Found: 2.55

Lookup: Tell me shrunken log2 fold change reported for RRIRQRPPRLPRPRPRPHSTPRP
Found: -0.149

Lookup: Tell me shrunken log2 fold change reported for RRIRVRPPRLPRPRPRPFHEPRP
Found: 0.324

Lookup: Tell me shrunken log2 fold change reported for RRIRHRPPRLPRPRPRPQGMPRP
Found: -0.201

Lookup: Tell me shrunken log2 fold change reported for RRIRHRPPRLPRPRPRPNYCPRP
Found: -0.0948

Lookup: Tell me shrunken log2 fold change reported for RRIRYRPPRLPRPRPRPMRTPRP
Found: 0.176

###

- Test system: Escherichia coli TOP10;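 also: peptides expressed intracellularly from a pBAD plasmid library in pooled LB shake-flask culture, induced with 0.3% L-arabinose, DNA abundance read by NGS, three biological replicates, DESeq2 with apeglm shrinkage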
- protocolText: shrunken log2 fold change of peptide-encoding DNA abundance (4.5 h post-induction vs induction); higher = less antimicrobial activity (less host growth inhibition)
- conditions: time post-induction: 4.5 h; library: site-saturation at positions 5, 18, 19, 20
Where shrunken log2 fold change equals or exceeds 0.05, the correct label is t; where it does not, the label is f.

Here's what some known entries look like.
# residues, classAssignment
data = [
    ("RRIRARPPRLPRPRPRPWGWPRP", "t"),
    ("RRIRIRPPRLPRPRPRPPYYPRP", "f"),
    ("RRIRERPPRLPRPRPRPQHQPRP", "f"),
    ("RRIRYRPPRLPRPRPRPFMHPRP", "f"),
    ("RRIRARPPRLPRPRPRPANWPRP", "t"),
]

Lookup: Check the entry RRIRLRPPRLPRPRPRPKWRPRP : does shrunken log2 fold change equal or exceed 0.05?
Found: t

Lookup: Check the entry RRIRPRPPRLPRPRPRPWNFPRP : does shrunken log2 fold change equal or exceed 0.05?
Found: f
